Where do these numbers come from? They come from patent US11660311B2.

Target: STING WT: His-TVMV-S-hSTING(155-341)-H232R (Homo sapiens, UniProt Q86WV6, H232R)
Construct: STING WT: His-TVMV-S-hSTING(155-341)-H232R
Sequence (Q86WV6 with tags, fused parts or gaps H232R): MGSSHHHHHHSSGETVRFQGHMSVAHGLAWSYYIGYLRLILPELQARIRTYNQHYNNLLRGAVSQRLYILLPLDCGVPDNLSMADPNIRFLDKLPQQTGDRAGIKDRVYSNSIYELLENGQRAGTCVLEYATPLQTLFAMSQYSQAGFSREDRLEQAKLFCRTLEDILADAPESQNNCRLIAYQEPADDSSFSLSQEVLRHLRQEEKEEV
Test: STING HTRF Binding Assay, STING WT
Settings: 20 nM His-tagged STING cytoplasmic domain, 200 nM fluorescein-labeled cGAMP analog probe, one hour; read-out: HTRF Binding Assays IC50 (μM) STING WT
Experimental: A time resolved FRET-based competition binding assay was used to assess test article binding to STING WT and STING AQ. […] Fluorescence at 495 nm and 520 nm was measured using an EnVision microplate reader to quantify FRET between Tb-labeled anti-His antibody and fluorescein-labeled probe. […] Percent inhibition was determined for test compounds at 11 concentrations. […]
Entries and their measured IC50 follow.

INSERT INTO results (molecule, measured_on, experimental_endpoint, result_value) VALUES
  ('NC(=O)c1cccc2c1nnn2[C@@H]1O[C@@H]2COP(=O)(S)O[C@H]3[C@@H](F)[C@H](n4cnc5c(N)ncnc54)O[C@@H]3COP(=O)(S)O[C@H]2[C@H]1F (single isomer, unassigned) [Example 4-1]', 'STING WT: His-TVMV-S-hSTING(155-341)-H232R (Homo sapiens, UniProt Q86WV6, H232R)', 'IC50', '> 100 µM'),
  ('Nc1ncnc2c1ncn2[C@@H]1O[C@@H]2COP(=O)(S)O[C@H]3[C@@H](F)[C@H](n4cnc5c4ncn4ncnc54)O[C@@H]3COP(=O)(S)O[C@H]2[C@H]1F (single isomer, unassigned) [Example 12-4]', 'STING WT: His-TVMV-S-hSTING(155-341)-H232R (Homo sapiens, UniProt Q86WV6, H232R)', 'IC50', '0.002 µM'),
  ('NC(=O)c1cccc2c1nnn2[C@@H]1O[C@@H]2COP(=O)(S)O[C@H]3[C@@H](F)[C@H](n4cnc5c(N)ncnc54)O[C@@H]3COP(=O)(S)O[C@H]2[C@H]1F (single isomer, unassigned) [Example 4-3]', 'STING WT: His-TVMV-S-hSTING(155-341)-H232R (Homo sapiens, UniProt Q86WV6, H232R)', 'IC50', '12 µM'),
  ('NC(=O)c1cccc2c1nnn2[C@@H]1O[C@@H]2COP(=O)(O)O[C@H]3[C@@H](F)[C@H](n4cnc5c(N)ncnc54)O[C@@H]3COP(=O)(S)O[C@H]2[C@H]1F (single isomer, unassigned) [Example 8-1]', 'STING WT: His-TVMV-S-hSTING(155-341)-H232R (Homo sapiens, UniProt Q86WV6, H232R)', 'IC50', '64.6 µM');

Recorded IC50 (molecule O=P1(O)OC[C@H]2O[C@@H](n3cnc4c3ncn3ccnc43)[C@H](O)[C@@H]2OP(=O)(O)OC[C@H]2O[C@@H](n3cnc4c3ncn3ccnc43)[C@H](O)[C@@H]2O1 [Example 19] ): 28.6 µM

Recorded IC50 (molecule NC(=O)c1cc([C@@H]2O[C@@H]3COP(=O)(O)O[C@H]4[C@@H](F)[C@H](n5cnc6c(N)ncnc65)O[C@@H]4COP(=O)(S)O[C@H]3[C@H]2O)ccn1 (stereo partly drawn) [Example 14] ): > 100 µM

Recorded IC50 (molecule Nc1nc2c(ncn2[C@@H]2O[C@@H]3COP(=O)(O)O[C@H]4[C@@H](O)[C@H](n5cnc6c5ncn5ccnc65)O[C@@H]4COP(=O)(S)O[C@H]3[C@H]2O)c(=O)[nH]1 (stereo partly drawn) [Example 16] ): 96 µM

Recorded IC50 (molecule Nc1ncnc2c1ncn2[C@@H]1O[C@@H]2COP(=O)(S)O[C@H]3[C@@H](F)[C@H](n4cnc5c4ncn4ccnc54)O[C@@H]3COP(=O)(S)O[C@H]2[C@H]1F (single isomer, unassigned) [Example 21-4] ): 0.01 µM

Recorded IC50 (molecule Nc1ncnc2c1ncn2[C@@H]1O[C@@H]2COP(=O)(S)O[C@H]3[C@@H](F)[C@H](n4cnc5c4ncn4ccnc54)O[C@@H]3COP(=O)(S)O[C@H]2[C@H]1F (single isomer, unassigned) [Example 21-1] ): 0.32 µM

---

Entries and their measured IC50 follow.
Molecular target: STING WT: His-TVMV-S-hSTING(155-341)-H232R (Homo sapiens, UniProt Q86WV6, H232R)
Construct: STING WT: His-TVMV-S-hSTING(155-341)-H232R
Experiment: STING HTRF Binding Assay, STING WT
Conditions: 20 nM His-tagged STING cytoplasmic domain, 200 nM fluorescein-labeled cGAMP analog probe, one hour; read-out: HTRF Binding Assays IC50 (μM) STING WT
Give just the number in µM; leave the unit off.

Past entries and their recorded results:
INSERT INTO measurements (compound, measured_on, experimental_endpoint, unit_descriptor, result_value) VALUES
  ('Nc1ncnc2c1ncn2[C@@H]1O[C@@H]2COP(=O)(S)O[C@H]3[C@@H](O)[C@H](n4nnc5c([N+](=O)[O-])cccc54)O[C@@H]3COP(=O)(O)O[C@H]2[C@H]1F (single isomer, unassigned) [Example 13-2]', 'STING WT: His-TVMV-S-hSTING(155-341)-H232R (Homo sapiens, UniProt Q86WV6, H232R)', 'IC50', 'µM', 5.49),
  ('NC(=O)c1cccc2c1nnn2[C@@H]1O[C@@H]2COP(=O)(O)O[C@H]3[C@@H](F)[C@H](n4cnc5c(N)ncnc54)O[C@@H]3COP(=O)(S)O[C@H]2[C@H]1F (single isomer, unassigned) [Example 8-2]', 'STING WT: His-TVMV-S-hSTING(155-341)-H232R (Homo sapiens, UniProt Q86WV6, H232R)', 'IC50', 'µM', 2.23);

# ---- query compound ----
Recorded IC50 (compound NC(=O)c1cc([C@@H]2O[C@@H]3COP(=O)(S)O[C@H]4[C@@H](F)[C@H](n5cnc6c(N)ncnc65)O[C@@H]4COP(=O)(S)O[C@H]3[C@H]2O)[nH]n1 (single isomer, unassigned) [Example 6-2] ): 88.6

---

Tested on: NF-κB pathway in THP1-Dual STING reporter cells
Test: STING THP1 Reporter Assay, NF-κB pathway (SEAP)
Type: cell-based, human
Conditions: Homo sapiens, THP1-Dual, 20 h, read-out: THP1 Reporter Assays EC50 (μM) NFkB, THP1-Dual cells, 10% human plasma, 20 hours, SEAP; 100% = 100 μM cGAMP
experimental endpoint: EC50

Past entries and their recorded results:
INSERT INTO assay_data (compound, result_value) VALUES
  ('Nc1ncnc2c1ncn2[C@@H]1O[C@@H]2COP(=O)(S)O[C@H]3[C@@H](O)[C@H](n4nnc5c([N+](=O)[O-])cccc54)O[C@@H]3COP(=O)(O)O[C@H]2[C@H]1F (single isomer, unassigned)', '> 100 µM'),
  ('NC(=O)c1cccc2c1nnn2[C@@H]1O[C@@H]2COP(=O)(O)O[C@H]3[C@@H](F)[C@H](n4cnc5c(N)ncnc54)O[C@@H]3COP(=O)(O)O[C@H]2[C@H]1F', '> 100 µM');

Recorded EC50 (compound NC(=O)c1cccc2c1nnn2[C@@H]1O[C@@H]2COP(=O)(O)O[C@H]3[C@@H](F)[C@H](n4cnc5c4ncn4ccnc54)O[C@@H]3COP(=O)(O)O[C@H]2[C@H]1F ): > 100 µM
